These measurements were taken from patent US10519111B2.

ASSAY SUMMARY: UV absorption properties (λmax, molar extinction coefficient ε, efficiency E 1%, 1 cm)
Assay type: physicochemical
CONDITION SUMMARY: Table 5, acylation of N-t-Bu enamine
OBSERVABLE: λmax (nm)

COMPOUND	UNIT DESCRIPTOR	λmax
CC1(C)CCN(C(C)(C)C)C=C1C(=O)c1ccncc1 [drawing 75]	nm	316
CC1(C)CCN(C(C)(C)C)C=C1C(=O)C1=CN(C(C)(C)C)CCC1(C)C [drawing 73]	nm	305
CC1(C)CCN(C(C)(C)C)C=C1C(=O)COc1ccccc1 [drawing 74]	nm	313
CC1(C)CCN(C(C)(C)C)C=C1C(=O)CCCCCCCCC(=O)C1=CN(C(C)(C)C)CCC1(C)C [drawing 72]	nm	307
